In this section, each of the binders is paired with its reported koff.
target: T1, human complement protein C5 (human, UniProt P01031 19-1676); experiment: SPR (Biacore)
T1 construct: Native C5 is a two-chain protein made from one precursor; also called hC5; human C5
quantity name: koff (s⁻¹)

LCP0095 (VHH, llama anti-C5 VHH, tested as VHH-His fusion; not shown: His-tag) VHH: EVQLVESGGGLVQAGGSLRLSCTASGRTISTTVMAWFRQAPGKEREFVAADHWGDAGTVYADSVKGRFTISRDNAKNTVYLQMNYLKPEDTSVYYCAARPPTYVGTSRDSRAYDYWGQGTQVTVSS = 0.000714
LCP0302 (VHH, llama anti-C5 VHH, tested as VHH-His fusion; not shown: His-tag) VHH: EVQLVESGGGLVQAGGSLRLSCAASGRTFSGILSAYAVGWFRQAPGKEREFVSTITSGGSTLSADSVKGRFTLSRDNAKDTVYLQMNSLKPEDTAVYYCAVRTWPYGSNRGEVPTENEYGHWGQGTQVTVSS = 2.22e-05
LCP0123 (VHH, llama anti-C5 VHH, tested as VHH-His fusion; not shown: His-tag) VHH: EVQLVESGGGLVQAGGSLTLSCAMSGGTRPFEDYVMAWFRQATGKEREFVATITWMGETTYYKDSVNGRFAISRDNAENTVALQMNSLEPEDTAVYFCAAHSRSSFSTSGGRYNPRPTEYDYWGQGTQVTVSS = 0.000216
LCP0115 (VHH, llama anti-C5 VHH, tested as VHH-His fusion; not shown: His-tag) VHH: EVQLVESGGGLVQAGGSLRLSCAASGRTFSGILSPYAVGWFRQAPGKGREFVSTITSGGSAIYTDSVKGRFTLSRDNAKDTVYLQMNSLKPEDTAVYYCAVRTRRYGSNLGEVPQENEYGYWGQGTQVTVSS = 3.48e-05

Reference for the values: patent US20250163138A1
